Data origin: PubChem BioAssay

As shown below, each of these molecules has a reported composite z-score value.
test system: wheat germ agglutinin (Triticum aestivum), Alexa647-labelled; experiment: Alexa647-WGA lectin binding to printed small molecules – biochemical, small-molecule microarray, 635/667 nm fluorescence, artefact control for SMM control-protein annotation, profiling panel (AID 1140); conditions: WGA-A647 binding, 635 nm fluorescence, higher = more signal;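 also: score merges 667 nm feature emission with signal to noise over triplicate slides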
Note: the reply should be a number with no unit written.

Query :: Note composite z-score for the molecule shown: "COc1ccc(C#Cc2ccc3c(c2)[C@]2(C(=O)N3)[C@H](C(=O)N3CCN(c4ncccn4)CC3)[C@H]3C(=O)O[C@H](c4ccccc4)[C@H](c4ccccc4)N3[C@@H]2c2ccc(O)cc2)cc1"
Result :: 0.4

Query :: Note composite z-score for the molecule shown: "COC(=O)[C@@]1(Cc2ccccc2)[C@H]2c3cc(C(=O)N(C)C)n(Cc4ccccc4)c3C[C@H]2CN1C(=O)c1ccccc1"
Result :: 1.04

Query :: Note composite z-score for the molecule shown: "O[C@@H](Cc1ccccc1)[C@@H](/C=C/c1ccccc1)NCc1ccccc1Br"
Result :: 0.217

Query :: Note composite z-score for the molecule shown: "Cc1ccc(S[C@]2(C(=O)NCCCN(C)C)CC(=O)N(Cc3ccccc3)[C@@H]2c2ccc(CO)cc2)cc1"
Result :: -0.0701
